Listed here: items and their measured Split Luciferase Assay Z-score Set 2.
# tgt: FGF14:Nav1.6 C-tail complex (Homo sapiens, UniProt Q92915+Q9UQD0)
# Construct: polymerase chain reaction (PCR) amplification of the FGF14 open reading frame (nt 1–855); C-terminal fragment of Nav1.6 (amino acids 1763–1976) fused with CD4ΔC-tail (amino acids 1–395); expressed in transfected cells
# Sequence (Q92915 1-252 isoform Q92915-2): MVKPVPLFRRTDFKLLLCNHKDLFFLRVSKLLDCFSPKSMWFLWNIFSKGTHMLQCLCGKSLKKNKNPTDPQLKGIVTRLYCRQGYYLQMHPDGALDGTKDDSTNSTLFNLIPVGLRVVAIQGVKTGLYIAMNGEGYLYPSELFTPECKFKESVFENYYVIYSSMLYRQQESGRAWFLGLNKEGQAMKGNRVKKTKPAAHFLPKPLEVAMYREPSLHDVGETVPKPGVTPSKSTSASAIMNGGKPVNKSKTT
# Sequence (Q9UQD0 1763-1976 limits assumed): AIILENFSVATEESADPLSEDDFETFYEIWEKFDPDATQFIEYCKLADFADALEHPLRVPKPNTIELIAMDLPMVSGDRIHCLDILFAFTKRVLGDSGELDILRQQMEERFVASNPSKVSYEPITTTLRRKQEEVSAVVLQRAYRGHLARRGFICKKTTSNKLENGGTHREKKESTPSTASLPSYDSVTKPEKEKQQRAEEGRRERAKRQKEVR
# protocol.notes: Split-luciferase complementation assay (LCA) in Clone V double stable HEK293 cells
# Format: cell-based
# conditions: CC_NCI screening; LCA, biological replicate Set 2; normalized to on-plate 0.3% DMSO controls
Form field (numeric): enter value without unit.

Worked examples follow.
molecule: CO[C@H]1C[C@@H]2CC[C@@H](C)[C@@](O)(O2)C(=O)C(=O)N2CCCC[C@H]2C(=O)O[C@H]([C@H](C)C[C@@H]2CC[C@@H](OCCO)[C@H](OC)C2)CC(=O)[C@H](C)/C=C(\C)[C@@H](O)[C@@H](OC)C(=O)[C@H](C)C[C@H](C)/C=C/C=C/C=C/1C
Split Luciferase Assay Z-score Set 2: -1.28

molecule: Cc1cn(-c2cc(NC(=O)c3ccc(C)c(Nc4nccc(-c5cccnc5)n4)c3)cc(C(F)(F)F)c2)cn1 [Nilotinib]
Split Luciferase Assay Z-score Set 2: 1.09

Then there is this molecule:
Recall the recorded Split Luciferase Assay Z-score Set 2 for `C[C@]12CC[C@H](O)CC1=CC[C@@H]1[C@@H]2CC[C@]2(C)C(c3cccnc3)=CC[C@@H]12` with FGF14:Nav1.6 C-tail complex (Homo sapiens, UniProt Q92915+Q9UQD0) and state it.
3.97

Values from paper PMC6858373
